Record type: pKi measurement. Applies to: UniProt P20272
Sequence (P20272 whole entry): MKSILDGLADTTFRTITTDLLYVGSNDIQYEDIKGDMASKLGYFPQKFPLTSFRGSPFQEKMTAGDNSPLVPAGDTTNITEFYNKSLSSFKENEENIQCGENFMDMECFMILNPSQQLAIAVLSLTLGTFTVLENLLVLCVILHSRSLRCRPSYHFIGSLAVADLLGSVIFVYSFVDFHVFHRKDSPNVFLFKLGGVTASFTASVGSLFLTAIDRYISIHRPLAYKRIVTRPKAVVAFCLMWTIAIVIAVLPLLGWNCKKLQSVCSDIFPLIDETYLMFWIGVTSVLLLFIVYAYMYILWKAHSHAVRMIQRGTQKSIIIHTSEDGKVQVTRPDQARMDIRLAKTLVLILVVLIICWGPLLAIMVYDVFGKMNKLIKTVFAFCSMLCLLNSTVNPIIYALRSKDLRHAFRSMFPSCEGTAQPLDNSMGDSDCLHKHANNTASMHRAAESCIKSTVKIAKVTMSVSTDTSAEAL
pKi here: minus log base 10 of the concentration, concentration in moles per litre.

In: Entry CCCCCC(C)(C)c1ccc([C@H]2CCC[C@H](O)C2)c(OC)c1 (relative stereo) has what pKi?
Out: 5.38

In: Entry CCCCCCC(C)(C)c1ccc([C@H]2CCC[C@@H](O)C2)c(O)c1 has what pKi?
Out: 8.02

In: Entry CCCCCCC(C)(C)c1ccc([C@H]2CCC[C@H](O)C2)cc1 (relative stereo) has what pKi?
Out: 6.19

In: Entry CCCCCC(C)(C)c1ccc([C@H]2CCC[C@@H](O)C2)c(OC)c1 (relative stereo) has what pKi?
Out: 5.36
